# pIC50 listing for each entry below
# studySystem: full length N-terminally FLAG-tagged PARP1 (Homo sapiens, UniProt P09874)
# Sequence (P09874 whole entry): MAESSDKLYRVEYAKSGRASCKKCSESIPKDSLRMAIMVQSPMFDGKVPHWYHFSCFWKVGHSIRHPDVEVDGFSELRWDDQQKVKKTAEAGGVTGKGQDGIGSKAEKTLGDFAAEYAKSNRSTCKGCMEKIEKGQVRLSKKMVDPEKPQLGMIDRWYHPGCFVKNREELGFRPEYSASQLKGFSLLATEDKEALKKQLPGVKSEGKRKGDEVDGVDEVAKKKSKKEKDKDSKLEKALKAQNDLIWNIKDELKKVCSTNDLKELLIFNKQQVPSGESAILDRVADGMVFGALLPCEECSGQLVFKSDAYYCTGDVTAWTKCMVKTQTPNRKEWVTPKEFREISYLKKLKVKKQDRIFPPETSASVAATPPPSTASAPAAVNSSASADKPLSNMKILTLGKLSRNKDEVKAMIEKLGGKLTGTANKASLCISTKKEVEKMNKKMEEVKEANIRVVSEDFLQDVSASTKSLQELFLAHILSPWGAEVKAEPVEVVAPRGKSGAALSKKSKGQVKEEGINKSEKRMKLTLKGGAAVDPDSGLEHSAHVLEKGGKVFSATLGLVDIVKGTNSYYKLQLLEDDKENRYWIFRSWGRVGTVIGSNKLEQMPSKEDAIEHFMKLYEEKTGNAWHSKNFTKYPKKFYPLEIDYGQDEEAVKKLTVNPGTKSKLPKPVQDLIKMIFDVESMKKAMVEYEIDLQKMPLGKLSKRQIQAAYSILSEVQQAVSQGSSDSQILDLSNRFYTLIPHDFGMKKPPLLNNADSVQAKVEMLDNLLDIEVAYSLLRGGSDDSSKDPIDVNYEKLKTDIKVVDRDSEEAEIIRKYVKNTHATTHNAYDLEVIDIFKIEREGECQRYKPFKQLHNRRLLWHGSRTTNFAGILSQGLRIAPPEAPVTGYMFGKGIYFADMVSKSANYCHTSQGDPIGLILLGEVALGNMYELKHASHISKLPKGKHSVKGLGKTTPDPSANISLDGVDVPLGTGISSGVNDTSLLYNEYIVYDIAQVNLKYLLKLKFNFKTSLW
# procedureText: PARP1 biochemical DELFIA assay (auto-PARylation)
# Parameters: recombinant full length human N-terminally FLAG-tagged PARP1
# condition: binned IC50, PARP1 biochemical DELFIA assay
pIC50: −log10 of the molar value.
measurementKind: pIC50

                                    compound     measvalue
 0  CNC(=O)c1ccc(N2CCC(N3CCC(c4cc5ccc(F)cc5c(=O)[nH]4)C3)CC2)c(C)n1 (single isomer, unassigned) [Compound 196b]        > 8.00
 1  CNC(=O)c1ccc(N2CCC(N3CCC(c4nc5cccc(C(F)(F)F)c5c(=O)[nH]4)C3)CC2)cn1 (single isomer, unassigned) [Compound 86b]        > 8.00
 2  CNC(=O)c1ccc(N2CCC(N3CCC(c4nc5cccc(C(F)(F)F)c5c(=O)[nH]4)C3)CC2)cn1 (single isomer, unassigned) [Compound 86a]  7.00 to 8.00
 3  CNC(=O)c1ccc(N2CCC(CN3CCC(c4nc5c(Cl)cccc5c(=O)[nH]4)CC3)CC2)cn1        > 8.00
 4  CNC(=O)c1ccc(N2CCC(N3CCCC(c4nc5c(c(C(F)(F)F)nn5C)c(=O)[nH]4)C3)CC2)cn1 (single isomer, unassigned) [Compound 190b]        > 8.00
 5  CNC(=O)c1ccc(OCCN2CCC(c3nc4ccccc4c(=O)[nH]3)C2)cn1 (single isomer, unassigned) [Compound 62a]  7.00 to 8.00
 6  CCc1cnc(-c2ccn(C3CCN(c4ccc(C(=O)NC)nc4)CC3)c2)[nH]c1=O  5.00 to 6.00
 7  CNC(=O)c1ccc(N2CCC(N3CCC(c4cc5c(F)cc(F)cc5c(=O)[nH]4)C3)CC2)cn1 (single isomer, unassigned) [Compound 186a]        > 8.00
 8  CNC(=O)c1ccc(N2CCC(N3CCCC(c4nc5c(Cl)cccc5c(=O)[nH]4)C3)CC2)cn1 (single isomer, unassigned) [Compound 44b]  7.00 to 8.00
 9  CNC(=O)c1ccc(N2CC(N3CCC(c4nc5ccccc5c(=O)[nH]4)C3)C2)cn1 (single isomer, unassigned) [Compound 61b]        > 8.00
10  COCCNC(=O)c1ccc(N2CCC(N3CCC(c4nc5ccccc5c(=O)[nH]4)C3)CC2)cn1 (racemic)        > 8.00
11  O=C(NCC(F)(F)F)c1ccc(N2CCC(N3CCC(c4nc5ccccc5c(=O)[nH]4)C3)CC2)cn1 (single isomer, unassigned) [Compound 130a]        > 8.00
12  CNC(=O)c1ccc(N2CCC(N3CCCC(C)(c4nc5ccccc5c(=O)[nH]4)C3)CC2)cn1 (single isomer, unassigned) [Compound 66a]  5.00 to 6.00
13  CNC(=O)c1ccc(N2CCC(N3CCC(c4cc5cnccc5c(=O)[nH]4)C3)CC2)cn1 (racemic)        > 8.00
14  CCc1cnc(C2CCN(C3CCC(F)(F)CC3)C2)[nH]c1=O (single isomer, unassigned) [Compound 38a]  5.00 to 6.00
15  CNC(=O)c1ccc(N2CCC(N3CCC(c4nc5c(Cl)cccc5c(=O)[nH]4)C3)CC2)cn1 (single isomer, unassigned) [Compound 52b]        > 8.00
16  CNC(=O)c1ccc(N2CCC(N3CCCC(F)(c4nc5ccccc5c(=O)[nH]4)C3)CC2)cn1 (single isomer, unassigned) [Compound 71b]  7.00 to 8.00
17  CNC(=O)c1ccc(N2CCC(N3CCC(c4ccc(OC)c(=O)[nH]4)C3)CC2)cn1 (single isomer, unassigned) [Compound 148b]  5.00 to 6.00
18  CNC(=O)c1ccc(N2CCC(N3CCC(c4ccc(CC5CC5)c(=O)[nH]4)C3)CC2)cn1 (single isomer, unassigned) [Compound 213a]  7.00 to 8.00
19  CNC(=O)c1ccc(N(C)CCCN2CCCC(c3nc4ccccc4c(=O)[nH]3)C2)cn1 (single isomer, unassigned) [Compound 16b]  6.00 to 7.00
20  CNC(=O)c1ccc(N2CCC(N3CCCC(c4nc5c(c(=O)[nH]4)CCCC5)C3)CC2)cn1 (single isomer, unassigned) [Compound 146b]  7.00 to 8.00
21  CCc1cnc(C2CCCN(C3CCC(F)(F)CC3)C2)[nH]c1=O (single isomer, unassigned) [Compound 24b]  5.00 to 6.00
22  CNC(=O)c1ccc(N2CCC(N3CCC(c4cc5cccc(C(F)(F)F)c5c(=O)[nH]4)C3)CC2)cn1 (racemic)        > 8.00
23  CNC(=O)c1ccc(N2CCC(N3CCC(c4cc5ccc(Cl)cc5c(=O)[nH]4)C3)CC2)cn1 (single isomer, unassigned) [Compound 129a]        > 8.00
24  CNC(=O)c1ccc(N2CCC(N3CCC(O)(c4nc5ccccc5c(=O)[nH]4)C3)CC2)cn1 (single isomer, unassigned) [Compound 140b]  7.00 to 8.00
